Entries and their IC50 values follow.
studySystem: Recombinant human Cbl-b (aa 36-427) (Homo sapiens (Human), UniProt Q13191)
Sequence (Q13191 36-427): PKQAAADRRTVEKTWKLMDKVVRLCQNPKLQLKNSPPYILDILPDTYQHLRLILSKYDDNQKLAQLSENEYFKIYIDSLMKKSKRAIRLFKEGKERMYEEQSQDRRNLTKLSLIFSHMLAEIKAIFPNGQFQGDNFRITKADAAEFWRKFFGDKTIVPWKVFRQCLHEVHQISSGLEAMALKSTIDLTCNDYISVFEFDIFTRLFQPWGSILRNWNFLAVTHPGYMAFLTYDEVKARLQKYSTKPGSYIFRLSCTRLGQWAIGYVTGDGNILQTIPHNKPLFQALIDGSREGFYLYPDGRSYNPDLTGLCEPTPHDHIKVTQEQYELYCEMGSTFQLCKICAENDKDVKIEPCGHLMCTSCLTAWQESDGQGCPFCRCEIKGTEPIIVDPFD
protocol: Cbl-b Biochemical Assay (TR-FRET)
measurementSetup: read-out: TR-FRET hCbl-b IC50

Example entries and their recorded answers appear below.
- compound: "Cn1cnnc1-c1cc(C#N)ccc1-c1cc(C2CC2)nc(N2Cc3c(F)cc(CNCC4CC4)cc3C2=O)c1 [AMC-2]"
  metric: "IC50"
  result: "≤ 200 nM"
- compound: "CCNc1cc(-c2ccc(C#N)cc2-c2nncn2C)cc(N2Cc3c(cc(CN4CCC[C@@H](C)C4)cc3C(F)(F)F)C2=O)n1 [ADU-2]"
  metric: "IC50"
  result: "≤ 200 nM"
- compound: "Cn1cnnc1-c1cc(Cl)ccc1-c1cc(C2CC2)nc(N2Cc3ccc(CNCC4CCC4)cc3C2=O)c1 [AIV-2]"
  metric: "IC50"
  result: "≤ 200 nM"
- compound: "CCNc1cc(-c2ccc(C#N)cc2-c2nncn2C)cc(N2Cc3c(cc(C(O)CN(C)C)cc3C(F)(F)F)C2=O)n1 (centres unmarked) [AFR-7]"
  metric: "IC50"
  result: "≤ 200 nM"
- compound: "Cn1cnnc1-c1cc(F)ccc1-c1cc(C2CC2)nc(N2Cc3c(cccc3C(F)(F)F)C2=O)c1 [AND-2]"
  metric: "IC50"
  result: "≤ 200 nM"
- compound: "C[C@@H](c1ccc2c(c1)C(=O)N(c1cc(-c3ccc(C#N)cc3-c3nncn3C)cc(C3CC3)n1)C2)N1CC2(COC2)C1 [AOD-2]"
  metric: "IC50"
  result: "≤ 200 nM"
- compound: "Cn1c(O)nnc1-c1cnccc1-c1cccc(N2Cc3c(cccc3C(F)(F)F)C2=O)c1 [AAS-6]"
  metric: "IC50"
  result: "10000 to 50000 nM"
- compound: "Cn1cnnc1-c1cc(C#N)ccc1-c1cc(C2CC2)nc(N2Cc3ccc(COCC4CCCC4)cc3C2=O)c1 [AIS-2]"
  metric: "IC50"
  result: "≤ 200 nM"

Need IC50 of Cn1cnnc1-c1ccc(C(F)(F)F)cc1-c1cccc(N2Cc3c(cccc3C(F)(F)F)C2=O)c1 [AAG-8] , thanks.
10000 to 50000 nM

Then what about the compound CCNc1cc(-c2c(-c3nncn3C)cnn2C)cc(N2Cc3c(cc(CN(C)CC4(O)CCC4)cc3C(F)(F)F)C2=O)n1 [AEJ-3] ?
≤ 200 nM

Then what about the compound COCCNCc1ccc2c(c1)C(=O)N(c1cc(-c3ccc(C#N)cc3-c3nncn3C)cc(C3CC3)n1)C2 [AGO-2] ?
≤ 200 nM

Then what about the compound C[C@@H](Cc1nncn1C)c1cc(NS(C)(=O)=O)nc(N2Cc3c(cccc3C(F)(F)F)C2=O)c1 [AHL-8] ?
10000 to 50000 nM

Then what about the compound Cn1cnnc1-c1ccccc1-c1cc(C2CC2)nc(N2Cc3ccc(CNCC4(O)CCC4)cc3C2=O)c1 [AEH-1] ?
≤ 200 nM

Then what about the compound CCNc1cc(-c2ccc(C#N)cc2-c2nncn2C)cc(N2Cc3c(cc(COC4CC4)cc3C(F)(F)F)C2=O)n1 [AEV-3] ?
≤ 200 nM

Then what about the compound CN(Cc1cc(F)c2c(c1)C(=O)N(c1cc(-c3ccc(C#N)cc3-c3nncn3C)cc(C3CC3)n1)C2)CC1CCC1 [AKT-1] ?
≤ 200 nM

Then what about the compound Cn1cnnc1-c1cc(C#N)ccc1-c1cc(C2CC2)nc(N2Cc3c(F)cc(CN4CC[C@H]5COC[C@@H]54)cc3C2=O)c1 (stereo in doubt) [AOT-2] ?
≤ 200 nM

Then what about the compound CCNc1cc(-c2ccccc2-c2nncn2C)cc(N2Cc3c(cc(CN4CCC(F)(F)C(C)C4)cc3C(F)(F)F)C2=O)n1 (centres unmarked) [AK-2] ?
≤ 200 nM

Then what about the compound CN(Cc1ccc2c(c1)C(=O)N(c1cc(-c3ccc(C#N)cc3-c3nncn3C)cc(C3CC3)n1)C2)CC1COC1 [ANX-2] ?
≤ 200 nM
